Target: SCRIB PDZ1 (718–814) (human, UniProt Q14160 718-814)
Sequence (Q14160 718-814): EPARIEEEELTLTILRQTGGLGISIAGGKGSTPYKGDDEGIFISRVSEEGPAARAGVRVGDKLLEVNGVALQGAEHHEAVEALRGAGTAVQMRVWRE
Experiment: fluorescence polarisation
pKd: −log10 of the molar value. * marks the point of attachment. FITC = O=C1OC2(c3ccc(O)cc3Oc3cc(O)ccc32)c2ccc(NC(=S)*)cc21
quantity: pKd

Query :: Determine its reported pKd: {FITC}-QNTDDVQTSF-OH [FITC-labeled C-terminal peptide of ACE2(796–805)]
Result :: < 4.00
